- assaySetup: in THF, 283.15 K
endpointLabel: solubility (mole fraction)

I have this compound here, `O=C(NC[C@H]1CN(c2ccc(N3CCOCC3=O)cc2)C(=O)O1)c1ccc(Cl)s1` , and I need its recorded solubility (mole fraction).
0.00023

---

- assaySetup: in ethyl acetate, 293.15 K
endpointLabel: solubility (mole fraction)

For the molecule `O=C(NC[C@H]1CN(c2ccc(N3CCOCC3=O)cc2)C(=O)O1)c1ccc(Cl)s1` , what solubility (mole fraction) is on record?
7.74e-05

---

- assaySetup: in THF, 313.15 K
endpointLabel: solubility (mole fraction)

What value of measured solubility (mole fraction) is listed for `O=C(NC[C@H]1CN(c2ccc(N3CCOCC3=O)cc2)C(=O)O1)c1ccc(Cl)s1` ?
0.00045

---

- assaySetup: in ethyl acetate, 318.15 K
endpointLabel: solubility (mole fraction)
Answer with a number only.

Field request: solubility (mole fraction) | item: `O=C(NC[C@H]1CN(c2ccc(N3CCOCC3=O)cc2)C(=O)O1)c1ccc(Cl)s1`
0.000144

---

- assaySetup: in DMF, 313.15 K
endpointLabel: solubility (mole fraction)
Please state the value as a number alone, without comment.

Recorded solubility (mole fraction) for `O=C(NC[C@H]1CN(c2ccc(N3CCOCC3=O)cc2)C(=O)O1)c1ccc(Cl)s1` , please?
0.0132

---

- assaySetup: in DMF, 318.15 K
endpointLabel: solubility (mole fraction)
// print number alone

What does the data say about its solubility (mole fraction)? Entry: `O=C(NC[C@H]1CN(c2ccc(N3CCOCC3=O)cc2)C(=O)O1)c1ccc(Cl)s1`
0.0147

---

- assaySetup: in ethyl acetate, 288.15 K
endpointLabel: solubility (mole fraction)
Answer with a bare number; do not write a unit.

Fill blank: measured solubility (mole fraction) of the compound `O=C(NC[C@H]1CN(c2ccc(N3CCOCC3=O)cc2)C(=O)O1)c1ccc(Cl)s1` is ____.
6.79e-05

---

- assaySetup: in THF, 293.15 K
endpointLabel: solubility (mole fraction)
// keep it numeric: no unit symbol after the value

Data request, read-out solubility (mole fraction), for `O=C(NC[C@H]1CN(c2ccc(N3CCOCC3=O)cc2)C(=O)O1)c1ccc(Cl)s1`
0.00029

---

- assaySetup: in ethyl acetate, 283.15 K
endpointLabel: solubility (mole fraction)
API doc: respond with a numeric literal and nothing else, no unit.

// query solubility (mole fraction) value for entry `O=C(NC[C@H]1CN(c2ccc(N3CCOCC3=O)cc2)C(=O)O1)c1ccc(Cl)s1`
5.93e-05

---

- assaySetup: in DMF, 278.15 K
endpointLabel: solubility (mole fraction)
Form field (numeric): enter value without unit.

Give its solubility (mole fraction) value. Item: `O=C(NC[C@H]1CN(c2ccc(N3CCOCC3=O)cc2)C(=O)O1)c1ccc(Cl)s1`
0.00586

---

- assaySetup: in DMF, 298.15 K
endpointLabel: solubility (mole fraction)

Can you look up the measured solubility (mole fraction) of `O=C(NC[C@H]1CN(c2ccc(N3CCOCC3=O)cc2)C(=O)O1)c1ccc(Cl)s1` for me?
0.00943
